# assayed.system: Dual specificity protein kinase CLK1 (Homo sapiens)
# protocol.text: Inhibition of CLK1 (unknown origin) in presence of 1 mM ATP without preincubation

| smiles.string | IC50 [nM] |
| --- | --- |
| CCOC(=O)C1=C(NN2CCN(CC(F)(F)F)CC2)O/C(=C\c2c[nH]c3ncccc23)C1=O | 212 |

###

# protocol.text: Half life in mouse at 10 mg/kg, po
# Assay type: ADME, organism-based
# test.parameters: in vivo

| smiles.string | half-life, h |
| --- | --- |
| CCOC(=O)C1=C(NN2CCN(CC(F)(F)F)CC2)O/C(=C\c2c[nH]c3ncccc23)C1=O | 1.45 |

###

# assayed.system: Dual specificity protein kinase CLK1 (Homo sapiens, UniProt P49759)
# Sequence (P49759 whole entry): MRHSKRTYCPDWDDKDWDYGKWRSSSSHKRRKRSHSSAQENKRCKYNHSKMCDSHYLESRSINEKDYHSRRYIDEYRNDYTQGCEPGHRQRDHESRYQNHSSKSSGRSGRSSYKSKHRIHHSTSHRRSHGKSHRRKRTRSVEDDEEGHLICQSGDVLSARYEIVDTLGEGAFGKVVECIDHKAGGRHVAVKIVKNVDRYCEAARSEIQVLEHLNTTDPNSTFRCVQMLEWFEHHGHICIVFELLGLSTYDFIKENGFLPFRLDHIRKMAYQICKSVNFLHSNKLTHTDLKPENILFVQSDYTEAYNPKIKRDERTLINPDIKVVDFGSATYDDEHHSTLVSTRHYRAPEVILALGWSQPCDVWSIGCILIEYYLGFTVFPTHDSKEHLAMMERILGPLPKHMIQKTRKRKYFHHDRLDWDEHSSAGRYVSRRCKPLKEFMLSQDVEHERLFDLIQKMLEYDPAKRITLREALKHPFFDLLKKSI
# protocol.text: Inhibition of CLK1 (unknown origin) in presence of 1 mM ATP with preincubation
pIC50: −log10 of the molar value.

| smiles.string | assayed.system | pIC50 |
| --- | --- | --- |
| CCOC(=O)C1=C(NN2CCN(CC(F)(F)F)CC2)O/C(=C\c2c[nH]c3ncccc23)C1=O | Dual specificity protein kinase CLK1 (Homo sapiens, UniProt P49759) | 6.69 |

###

# protocol.text: Oral bioavailability in dog at 2 mg/kg
# Type: ADME, organism-based, Canis lupus familiaris
# test.parameters: in vivo
measurement.label: bioavailability (%)

| smiles.string | measurement.label | unit.abbreviation | assay.result |
| --- | --- | --- | --- |
| CCOC(=O)C1=C(NN2CCN(CC(F)(F)F)CC2)O/C(=C\c2c[nH]c3ncccc23)C1=O | bioavailability | % | 33.3 |

###

# protocol.text: MRT in dog at 1 mg/kg, iv
# Format: ADME, organism-based, Canis lupus familiaris
# test.parameters: in vivo
measurement.label: MRT

| smiles.string | measurement.label | assay.result |
| --- | --- | --- |
| CCOC(=O)C1=C(NN2CCN(CC(F)(F)F)CC2)O/C(=C\c2c[nH]c3ncccc23)C1=O | MRT | 5.26 h |

###

# protocol.text: Cmax in mouse at 1 mg/kg, iv
# Assay type: ADME, organism-based
# Design: route intravenous, dose 1 mg/kg
# test.parameters: in vivo
measurement.label: Cmax (ng/mL)

| smiles.string | assay.result |
| --- | --- |
| CCOC(=O)C1=C(NN2CCN(CC(F)(F)F)CC2)O/C(=C\c2c[nH]c3ncccc23)C1=O | 408 |

###

# assayed.system: Serine/threonine-protein kinase pim-1 (Homo sapiens, UniProt P11309)
# Sequence (P11309 whole entry): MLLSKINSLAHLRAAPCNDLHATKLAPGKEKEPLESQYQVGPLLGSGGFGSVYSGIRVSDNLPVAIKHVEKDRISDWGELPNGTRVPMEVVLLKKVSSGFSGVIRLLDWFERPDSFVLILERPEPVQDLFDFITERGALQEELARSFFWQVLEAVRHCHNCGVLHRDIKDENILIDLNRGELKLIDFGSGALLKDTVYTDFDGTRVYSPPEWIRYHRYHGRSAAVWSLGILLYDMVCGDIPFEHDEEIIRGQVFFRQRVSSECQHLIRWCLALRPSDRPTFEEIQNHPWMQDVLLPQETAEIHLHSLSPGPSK
# protocol.text: Inhibition of PIM1 (unknown origin) in presence of 1 mM ATP without preincubation
pIC50: −log10 of the molar value.

| molecule | assayed.system | pIC50 |
| --- | --- | --- |
| CCOC(=O)C1=C(NN2CCN(CC(F)(F)F)CC2)O/C(=C\c2c[nH]c3ncccc23)C1=O [MONZOSERTIB] | Serine/threonine-protein kinase pim-1 (Homo sapiens, UniProt P11309) | 7.52 |

###

The following molecules are shown together with reported IC50 values.
# protocol.text: Inhibition of human CDC7/ASK using FITC-labelled MCM2 substrate in presence of 1 mM of ATP

| smiles.string | IC50 / nM |
| --- | --- |
| CCOC(=O)C1=C(N(C)C2CCCCC2)O/C(=C\c2c[nH]c3ncccc23)C1=O | 954 |
| CCOC(=O)C1=C(NN(C)C2CCCCC2)O/C(=C\c2c[nH]c3ncccc23)C1=O | 410 |
| CCOC(=O)C1=C(NN(CC)CC)O/C(=C\c2c[nH]c3ncccc23)C1=O | 396 |
| CCOC(=O)C1=C(N2CCCCCC2)O/C(=C\c2c[nH]c3ncccc23)C1=O | 394 |
| CCOC(=O)C1=C(NN2CCCC2)O/C(=C\c2c[nH]c3ncccc23)C1=O | 694 |
